Numbers sourced from patent US8575183B2.

molecular target: PI3k δ (Homo sapiens, UniProt O00329); construct: Full length p110 subunits of PI3k α, β and δ; polyHis (N); made in house; host or cells: Sf9 insect cells (baculovirus); test: biochemical; format: biochemical; details: read-out: PI3k δ Ki
Sequence (O00329 whole entry): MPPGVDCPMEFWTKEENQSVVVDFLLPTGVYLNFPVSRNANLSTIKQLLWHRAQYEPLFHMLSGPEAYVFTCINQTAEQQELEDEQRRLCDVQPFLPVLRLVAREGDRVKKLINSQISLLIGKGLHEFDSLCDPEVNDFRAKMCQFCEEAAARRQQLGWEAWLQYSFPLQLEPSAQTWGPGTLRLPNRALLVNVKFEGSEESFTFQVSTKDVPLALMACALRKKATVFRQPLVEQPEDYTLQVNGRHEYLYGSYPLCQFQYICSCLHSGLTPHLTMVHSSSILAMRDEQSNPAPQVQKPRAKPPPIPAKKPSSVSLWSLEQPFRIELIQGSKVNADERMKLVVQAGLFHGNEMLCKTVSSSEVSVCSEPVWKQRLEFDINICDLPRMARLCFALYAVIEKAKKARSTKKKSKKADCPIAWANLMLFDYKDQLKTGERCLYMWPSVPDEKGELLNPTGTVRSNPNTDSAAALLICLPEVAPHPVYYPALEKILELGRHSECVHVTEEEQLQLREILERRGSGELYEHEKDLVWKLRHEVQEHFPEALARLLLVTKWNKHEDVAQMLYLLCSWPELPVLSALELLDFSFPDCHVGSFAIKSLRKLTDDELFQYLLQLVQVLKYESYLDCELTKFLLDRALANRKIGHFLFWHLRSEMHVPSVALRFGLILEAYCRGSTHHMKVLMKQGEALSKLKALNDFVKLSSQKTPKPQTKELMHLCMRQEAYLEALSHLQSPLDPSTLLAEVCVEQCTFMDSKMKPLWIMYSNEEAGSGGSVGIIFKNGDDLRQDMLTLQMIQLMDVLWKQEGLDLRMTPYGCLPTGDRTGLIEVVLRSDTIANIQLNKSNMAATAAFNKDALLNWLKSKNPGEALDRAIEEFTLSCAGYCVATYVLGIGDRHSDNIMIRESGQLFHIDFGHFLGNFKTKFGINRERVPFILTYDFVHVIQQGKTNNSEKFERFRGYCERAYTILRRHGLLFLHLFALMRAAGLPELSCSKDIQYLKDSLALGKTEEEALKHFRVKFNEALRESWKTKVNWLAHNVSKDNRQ
Sequence (P27986 whole entry partner): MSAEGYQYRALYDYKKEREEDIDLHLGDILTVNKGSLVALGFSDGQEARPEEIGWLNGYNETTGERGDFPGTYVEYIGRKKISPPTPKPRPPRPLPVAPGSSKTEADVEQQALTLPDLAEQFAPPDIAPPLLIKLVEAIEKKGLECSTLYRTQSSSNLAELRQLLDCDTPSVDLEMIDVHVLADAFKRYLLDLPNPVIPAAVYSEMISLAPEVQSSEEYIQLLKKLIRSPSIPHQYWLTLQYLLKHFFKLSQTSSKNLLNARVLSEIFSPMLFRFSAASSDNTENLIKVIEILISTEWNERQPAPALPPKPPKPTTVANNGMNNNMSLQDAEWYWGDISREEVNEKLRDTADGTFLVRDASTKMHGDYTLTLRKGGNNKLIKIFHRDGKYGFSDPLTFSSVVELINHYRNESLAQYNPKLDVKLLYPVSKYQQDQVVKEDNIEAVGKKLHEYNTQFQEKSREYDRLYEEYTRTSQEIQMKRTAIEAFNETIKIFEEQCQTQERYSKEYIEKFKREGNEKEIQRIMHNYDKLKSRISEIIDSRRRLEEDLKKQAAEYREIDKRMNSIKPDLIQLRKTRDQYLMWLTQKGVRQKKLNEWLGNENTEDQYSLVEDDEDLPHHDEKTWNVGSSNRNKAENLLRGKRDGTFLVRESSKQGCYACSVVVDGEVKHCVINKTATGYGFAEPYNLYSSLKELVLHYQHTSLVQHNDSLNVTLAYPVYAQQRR
Give Ki for every item shown.
Give a bare numeral; the unit nM is implied.

Ask | Quote Ki reported for `C[C@H](Nc1ncnc(N)c1C#N)c1nc2cccc(C(=O)NC3CC3)c2n1C1CC1` please.
Reply | 17.5

Ask | Quote Ki reported for `CC[C@H](Nc1ncnc(N)c1C#N)c1nc2cccc(C(F)(F)F)c2n1CC1CC1` please.
Reply | 53.1

Ask | Quote Ki reported for `C[C@H](Nc1ncnc(N)c1C#N)c1nc2cc(F)ccc2n1-c1ccccc1` please.
Reply | 1.7

Ask | Quote Ki reported for `CNC(=O)c1cccc2nc([C@H](C)Nc3ncnc(N)c3C#N)c(-c3ccccc3)n12` please.
Reply | 26.2

Ask | Quote Ki reported for `C[C@H](Nc1ncnc(N)c1C#N)c1nc2cc(F)c(F)cc2n1-c1cncc(F)c1` please.
Reply | 57.5

Ask | Quote Ki reported for `CNC(=O)c1cccc2nc([C@H](C)Nc3ncnc(N)c3C#N)c(-c3cncc(F)c3)n12` please.
Reply | 81.1

Ask | Quote Ki reported for `N#Cc1c(N)ncnc1NCc1nc2c(Cl)cccn2c1-c1ccccc1` please.
Reply | 230

Ask | Quote Ki reported for `C[C@H](Nc1ncnc(N)c1C#N)c1nc2cccc(C(=O)N3CCN(C)CC3)n2c1-c1ccccc1` please.
Reply | 11.8

Ask | Quote Ki reported for `COC(=O)c1cccc2nc([C@H](C)Nc3ncnc(N)c3C#N)c(-c3ccccc3)n12` please.
Reply | 39
